Test system: C. albicans ATCC MYA-2876(S) (strain C)
assay protocol: Antifungal MIC determination (CLSI M27-A3, 96-well)
Assay type: cell-based, Candida albicans
condition: strain C; compounds 1-4n and AmB; 48 h, RPMI 1640
measured quantity: log10 MIC-0 (log10 of the value in µg/mL)

- structure string: "O=c1c2ccccc2sn1-c1ccccc1"
  measured quantity: "log10 MIC-0"
  result number: 1.10
- structure string: "CCCCCCCCn1sc2ccccc2c1=O"
  measured quantity: "log10 MIC-0"
  result number: 0.80
- structure string: "O=c1c2ccccc2sn1C1CCCC1"
  measured quantity: "log10 MIC-0"
  result number: -0.11
- structure string: "CC(C)c1cccc(-n2sc3ccccc3c2=O)c1"
  measured quantity: "log10 MIC-0"
  result number: 0.50
- structure string: "O=c1c2ccccc2sn1-c1cc(Br)cc(Br)c1"
  measured quantity: "log10 MIC-0"
  result number: 0.80
- structure string: "O=c1c2ccccc2sn1C1CCCCCC1"
  measured quantity: "log10 MIC-0"
  result number: 0.50
- structure string: "CCCCCCn1sc2ccccc2c1=O"
  measured quantity: "log10 MIC-0"
  result number: -0.11
- structure string: "CC(C)(C)n1sc2ccccc2c1=O"
  measured quantity: "log10 MIC-0"
  result number: 0.50
- structure string: "CC(C)CCn1sc2ccccc2c1=O"
  measured quantity: "log10 MIC-0"
  result number: 0.19
- structure string: "O=c1c2ccccc2sn1CCCc1ccccc1"
  measured quantity: "log10 MIC-0"
  result number: 0.80

* * *

System: C. albicans ATCC 64124 (strain B)
assay protocol: microbe, parasite or virus in culture
Format: cell-based, Candida albicans
condition: strain B; compounds 1-4n and AmB; 48 h, RPMI 1640
Measured MIC-0, listed per entry.
measured quantity: MIC-0 (µg/mL)

- compound: "CC(C)(C)n1sc2ccccc2c1=O"
  assayed target: "C. albicans ATCC 64124 (strain B)"
  result units: "µg/mL"
  reading qualifier: "="
  result number: 1.56
- compound: "O=c1c2ccccc2sn1-c1ccc(F)cc1"
  assayed target: "C. albicans ATCC 64124 (strain B)"
  result units: "µg/mL"
  reading qualifier: "="
  result number: 6.25
- compound: "O=c1c2ccccc2sn1CCc1ccccc1"
  assayed target: "C. albicans ATCC 64124 (strain B)"
  result units: "µg/mL"
  reading qualifier: "="
  result number: 1.56
- compound: "CCCCCCCCCCCCn1sc2ccccc2c1=O"
  assayed target: "C. albicans ATCC 64124 (strain B)"
  result units: "µg/mL"
  reading qualifier: ">"
  result number: 12.5
- compound: "COc1cc(OC)cc(-n2sc3ccccc3c2=O)c1"
  assayed target: "C. albicans ATCC 64124 (strain B)"
  result units: "µg/mL"
  reading qualifier: "="
  result number: 12.5
- compound: "O=c1c2ccccc2sn1-c1ccc(Cl)cn1"
  assayed target: "C. albicans ATCC 64124 (strain B)"
  result units: "µg/mL"
  reading qualifier: "="
  result number: 12.5
- compound: "C[C@@H]1[C@H](O)[C@@H](C)/C=C/C=C/C=C/C=C/C=C/C=C/C=C/[C@H](O[C@@H]2O[C@H](C)[C@@H](O)[C@H](N)[C@@H]2O)C[C@@H]2O[C@](O)(C[C@@H](O)C[C@@H](O)[C@H](O)CC[C@@H](O)C[C@@H](O)CC(=O)O[C@H]1C)C[C@H](O)[C@H]2C(=O)O [AmB, amphotericin B, reference compound]"
  assayed target: "C. albicans ATCC 64124 (strain B)"
  result units: "µg/mL"
  reading qualifier: "="
  result number: 3.9
- compound: "CC(C)CCn1c(=O)c2ccccc2[s+]1[O-] (centres unmarked)"
  assayed target: "C. albicans ATCC 64124 (strain B)"
  result units: "µg/mL"
  reading qualifier: ">"
  result number: 12.5
